- ASSAY PROCEDURE: NCI Yeast Anticancer Drug Screen. Data for the bub3 strain (AID 167)
- RECORDED CONDITIONS: S. cerevisiae bub3 mutant strain, at 50.0 µM
Compounds without any hit were thinned out: in the full panel of roughly 79,000, 15% have a hit. Active and inactive are the calls of the source. No stated cut-off is given here; in the data, active means growth inhibition above about 70%; inactive means the rest.
Valid outcomes are listed here; reply with one: YES (active), NO (inactive)

As a guide, the following entries are already answered.
> print(dat)
                                   compound  assigned.category
1  O=C(NCC(O)CO)c1cc([N+](=O)[O-])cc([N+](=O)[O-])c1N(CCCl)CCCl (stereo unspecified)                 NO
2  NCC1OC(OC2C(CO)OC(OC3C(O)C(N)CC(N)C3OC3OC(CN)C(O)C(O)C3N)C2O)C(N)C(O)C1O (stereo unspecified)                 NO
3  COC(=O)N/N=C(/CCN1CCCC1)CC(c1ccccc1)c1c(O)c2ccccc2oc1=O (stereo unspecified)                 NO
4                     O=C(CCl)Nc1ccc(Cl)cc1                 NO
5  CC(=O)Oc1cccc2c1C(=O)C(C(=O)C=O)C1C(C=O)OC(C)(C)OC21C (stereo unspecified)                 NO
6  COc1ccc(C[C@H]2NC[C@H](O)[C@H]2OC(C)=O)cc1                YES
7  COC(=O)C1C2CCCN2OC1(C)CO (stereo unspecified)                 NO
8                 CC(C)SP(=S)(SC(C)C)SC(C)C                 NO

Which outcome was assigned to CCOS(=O)(=O)OCC in this test?
NO

State the result this test recorded for COC1=N[C@]2(O)C[C@]3(C)[C@@H](O)CC[C@H]3[C@@H]3CCC4=CC(=O)CC[C@]4(C)[C@]32S1 .
NO

Identify the outcome logged in this assay for the compound shown: ClC1=C(Cl)C2(Cl)C(Cl)CC1(Cl)C2(Cl)Cl (stereo unspecified)
NO

* * *

For each entry below, report its growth inhibition value.
- ASSAY PROCEDURE: NCI Yeast Anticancer Drug Screen. Data for the cln2 rad14 strain (AID 165);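 further: 0% = growth equal to vehicle treated cultures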
- RECORDED CONDITIONS: S. cerevisiae cln2 rad14 strain, at 5.0 µM (retest, dose inferred, filed as 0.5), stronger effect = higher value
This is part of a sample that, as a whole, favours compounds with a hit. Of some 79,000 tested, about 15% had one in any assay.
Numbers only, in %.

# count of solved cases: 6
MOLECULE	EXPERIMENTAL READOUT	UNIT LABEL	QUANTITATIVE READOUT
COc1ccc(Br)c(/C=C/[N+](=O)[O-])c1	growth inhibition	%	0
O=P(c1cccc(C(F)(F)F)c1)(c1cccc(C(F)(F)F)c1)c1cccc(C(F)(F)F)c1.O=P(c1cccc(C(F)(F)F)c1)(c1cccc(C(F)(F)F)c1)c1cccc(C(F)(F)F)c1.[Cl][Sn]([Cl])([Cl])[Cl]	growth inhibition	%	-10
COc1ccc2nc3ccccc3c(NCCCCN(C)CCCl)c2c1	growth inhibition	%	34
O=[n+]1c2ccccc2n([O-])c2ccccc21.[Cl][Cu][Cl]	growth inhibition	%	7
CCC[CH2][Sn]1([CH2]CCC)[O]CC(C)[O]1 (stereo not given)	growth inhibition	%	34
C[C](=O)[Hg][O]c1ccc(N=Cc2ccccc2O)cc1	growth inhibition	%	99

Required: growth inhibition, one value per molecule below.
1. O=[N+]([O-])/C=C/c1ccc(Cl)cc1
2. CC1CCN(CCC(=O)CC(c2ccccc2)c2c(O)c3ccccc3oc2=O)CC1 (stereo not given)
3. O=C(Cc1c2ccccc2cc2c1ccc1ccccc12)N(CCCl)CCCl
4. O=P(O)(Oc1ccccc1)Oc1ccccc1.[Ag]

[19, 2, 5, 70]

* * *

Exercise: for every item that follows, state its recorded growth inhibition.
- ASSAY PROCEDURE: NCI Yeast Anticancer Drug Screen. Data for the bub3 strain (AID 167)
- RECORDED CONDITIONS: S. cerevisiae bub3 mutant strain, at 50.0 µM (retest, dose inferred, filed as 5.0), stronger effect = higher value
This is part of a sample that, as a whole, favours compounds with a hit. Of some 79,000 tested, about 15% had one in any assay.
One number for each entry, in %.

Worked cases, growth inhibition given:
> print(dat)
                                   molecule  unit.label  quantitative.readout
1         COc1ccc(Br)c(/C=C/[N+](=O)[O-])c1           %                    92
2  CC(C)=N.[C-]#[O+].[C-]#[O+].[C-]#[O+].[C-]#[O+].[C-]#[O+].[W]           %                    47
3  CCOC(=O)CNC(=O)C1C2c3ccccc3C(c3ccccc32)C1C(=O)O (stereo not given)           %                    45
4      C/C(=C\c1ccc(Cl)c(Cl)c1)[N+](=O)[O-]           %                    98
5  Clc1ccc2c(c1)C(c1ccccc1Cl)=NCC(SCCN1CCOCC1)=N2           %                    93

Provide reported growth inhibition for each item, in the same order as listed.
1. C[CH2][Sn]([O][Sn]([Cl])([CH2]C)[c]1ccccc1)[c]1ccccc1 (stereo not given)
2. Cc1nnc2n1-c1ccc(Cl)cc1C(c1ccccc1)=[N+]([O-])C2
3. CCCCCN1C(=O)C2C(C1=O)C1(Cl)C(Cl)=C(Cl)C2(Cl)C1(Cl)Cl (stereo not given)
4. NC[CH2][Sn]([c]1ccccc1)([CH]1CCCCC1)[CH]1CCCCC1
5. S=P(OC1CC2CCC1C2)(c1ccccc1)c1ccccc1 (stereo not given)

1: 97; 2: -1; 3: 96; 4: 98; 5: 97

* * *

- ASSAY PROCEDURE: NCI Yeast Anticancer Drug Screen. Data for the sgs1 mgt1 strain (AID 161);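 further: 0% = growth of cultures given vehicle only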
- RECORDED CONDITIONS: S. cerevisiae sgs1 mgt1 strain, at 50.0 µM, stronger effect = higher value
This is part of a sample that, as a whole, favours compounds with a hit. Of some 79,000 tested, about 15% had one in any assay.
EXPERIMENTAL READOUT: growth inhibition (%)
One number for each entry, in %.

Use these answered entries as a reference point.
> print(dat)
                                   compound  quantitative.readout
1                              Cc1ccc(O)cc1                   -22
2  CC1(C(=O)O)C2[Se]c3cc[se]c3C2C1(C)C(=O)O (stereo not given)                 -8.15
3  C=C1CC/C=C(/C)C(=O)C(OC(C)=O)C2C1CC2(C)C (stereo not given)                  81.2

# map each compound to its growth inhibition
1. CNC(P(=O)([O-])[O-])P(=O)([O-])[O-].N.N.[Pt+2]
2. CC(C)C(CC[C@@H](C)C1CC[C@@]2(C)C3=C(CC[C@]12C)[C@@]1(C)CC[C@H](O)C(C)(C)[C@@H]1CC3)S[As](C)C (stereo not given in full)

-47.2
26.7

* * *

- ASSAY PROCEDURE: NCI Yeast Anticancer Drug Screen. Data for the cln2 rad14 strain (AID 165);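 further: 0% = growth equal to vehicle treated cultures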
- RECORDED CONDITIONS: S. cerevisiae cln2 rad14 strain, at 50.0 µM, stronger effect = higher value
About 79,000 compounds went through this panel and 15% of them were active in at least one assay; those are over-represented in the sample as a whole.
EXPERIMENTAL READOUT: growth inhibition (%)
Numbers only, in %.

COMPOUND	growth inhibition (%)
OCCN=Cc1ccccc1O.OCCN=Cc1ccccc1O.[Ni]	-26.4
O=[N+]([O-])c1cc(/C=N\NC(=S)NC2CN3CCC2CC3)ccc1Cl (configuration not stated)	0.15
N#CC(C#N)=Cc1ccco1	-42.4

Quick request: growth inhibition for each listed item, please.
1. O=c1[nH]c2ccccc2c(=O)n1-c1ccccc1
2. [C-]#[O+].[Cl][Sn]([Cl])[Cl].[Cl][Sn]([Cl])[Cl].[Pt].c1ccncc1
3. O=P(O)(Oc1ccccc1)Oc1ccccc1.[Ag]
4. C(#Cc1ccccc1)c1ccccc1

-6.05
41.8
93
-13.6

Batch of 5 compounds: report growth inhibition for each.
1. CN(C)C(=S)Oc1c(Cl)cc(S(=O)(=O)F)cc1Cl
2. O=[N+]([O-])c1ccc(SCl)c([N+](=O)[O-])c1
3. CC1(C)CCC(C)(C)c2c1ccc(O)c2Cc1c(O)ccc2c1C(C)(C)CCC2(C)C
4. O=[Te]=O
5. Cc1nn(C)pc1P(C)(=S)n1nc(N(C)C)np1 (configuration not stated)

1. 19.6
2. 14.6
3. -17.2
4. 5
5. 0.2

Hey, quick one: what's growth inhibition for each of these?
1. Cc1cc(S(=O)(=O)[O-])ccc1-n1nc(C)[c-](N=Nc2cc(S(=O)(=O)[O-])ccc2C(=O)[O-])c1=O.[Cr+3].[Na+].[OH-] (configuration not stated)
2. Cc1ccc([NH-])cc1C.Cc1ccc([NH-])cc1C.[Cl][Pt+2][Cl]
3. Cc1cc(N(CCCl)CCCl)ccc1C=Nc1ccccc1C(=O)O
4. CCOS(=O)(=O)OCC
5. COc1cccc2c1C(=O)c1c(O)c3c(c(O)c1C2=O)CC(O)(C(=O)CO)CC3OC1CC(N2CCOCC2C#N)C(O)C(C)O1 (configuration not stated)
6. Cc1cc(N(CCCl)CCCl)ccc1CN1CCCN(Cc2ccc(N(CCCl)CCCl)cc2C)C1c1ccccc1O

[-35.4, -32.4, 16.1, -0.45, 86.5, -4.5]

Answer for every listed entry: what is its growth inhibition? The entries follow.
1. [Cl][Pd]([Cl])([Cl])[Cl].[NH-]CC[NH-].[NH-]CC[NH-].[Pd+2]
2. COc1ccccc1C(Cc1ccc(N2C(N)=NC(N)=NC2(C)C)cc1)C(=O)Nc1ccc(S(=O)(=O)F)cc1 (configuration not stated)
3. FC(F)(F)C1(F)N(Cc2ccccc2)C1(F)C(F)(F)F (configuration not stated)
4. CC(C)C12C=C3CCC4C(C)(C(=O)O)CCCC4(C)C3(CC1)OO2 (configuration not stated)

-3.5
55.4
-6.65
86.4
